# protocolSummary: nephelometric (kinetic) solubility determination, phosphate buffer pH 7.4
# Format: physicochemical
# settings: aqueous buffer, kinetic from dmso stock, nephelometric, Table 7
Reported solubility kinetic values for the following compounds.

Some entries whose results are on file:
compound	parameter	result
CCCOc1ccc(C(=O)N(C)[C@H]2CCc3cc(CNCC4CCOCC4)ccc3C2)nc1 [Example 2-08]	solubility kinetic	> 283 µg/mL
CN(C(=O)c1ccc(OCC2CC2)cc1)[C@H]1CCc2cc(CNCC(C)(C)C)ccc2C1 [Example 7-11]	solubility kinetic	> 274 µg/mL
CN(C(=O)c1ccc(OCC2CC2)cc1)[C@H]1CCc2cc(CNC[C@@H]3CCCO3)ccc2C1 [Example 1-02]	solubility kinetic	> 281 µg/mL
CC(C)COc1ccc(C(=O)N(C)[C@H]2CCc3cc(CNCC4CCOCC4)ccc3C2)nc1 [Example 2-09]	solubility kinetic	> 290 µg/mL

Continue with the next compound.
Prompt: Consider the compound CC(C)CCNCc1ccc2c(c1)CC[C@H](N(C)C(=O)c1ccc(OCC3CC3)cn1)C2 [Example 7-32] . State its measured solubility kinetic.
Completion: > 275 µg/mL
